Readings of fold change (FC) for the listed molecules
Target: Hypoxia-inducible factor 1-alpha (Homo sapiens) (UniProt Q16665)
Sequence (Q16665 whole entry, looked up): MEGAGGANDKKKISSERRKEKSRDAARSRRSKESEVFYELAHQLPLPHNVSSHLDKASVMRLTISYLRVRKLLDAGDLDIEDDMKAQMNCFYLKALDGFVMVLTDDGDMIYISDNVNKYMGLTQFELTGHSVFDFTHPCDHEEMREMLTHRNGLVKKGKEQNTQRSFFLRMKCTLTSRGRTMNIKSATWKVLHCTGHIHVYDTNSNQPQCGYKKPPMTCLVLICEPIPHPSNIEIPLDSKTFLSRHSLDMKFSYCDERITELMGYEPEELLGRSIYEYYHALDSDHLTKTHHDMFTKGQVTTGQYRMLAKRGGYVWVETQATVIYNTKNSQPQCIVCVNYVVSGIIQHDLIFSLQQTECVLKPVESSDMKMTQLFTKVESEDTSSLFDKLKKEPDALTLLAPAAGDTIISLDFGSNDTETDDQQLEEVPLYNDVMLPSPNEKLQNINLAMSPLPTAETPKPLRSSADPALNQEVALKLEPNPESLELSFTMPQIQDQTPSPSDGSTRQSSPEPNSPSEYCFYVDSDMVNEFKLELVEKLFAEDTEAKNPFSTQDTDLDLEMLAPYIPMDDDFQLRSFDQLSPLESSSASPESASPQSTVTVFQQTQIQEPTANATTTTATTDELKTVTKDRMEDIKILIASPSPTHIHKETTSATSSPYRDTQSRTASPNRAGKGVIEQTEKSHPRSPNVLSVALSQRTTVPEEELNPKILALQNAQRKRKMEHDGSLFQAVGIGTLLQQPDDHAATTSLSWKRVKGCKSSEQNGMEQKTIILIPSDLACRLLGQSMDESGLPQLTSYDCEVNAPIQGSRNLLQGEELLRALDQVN
Experiment: Induction of stabilization of HIF-1alpha in human Hep3B cells by measuring fold change protein level at 500 uM incubated for 3 hrs by Western blot analysis
Assay type: cell-based
Write the value as a bare number.

COC(=O)C(=O)NCC(=O)OC(C)OC(=O)OC(C)C (stereo not given)    3

q: Field: fold change (FC) (Hypoxia-inducible factor 1-alpha (Homo sapiens) (UniProt Q16665)). Entry: COC(=O)C(=O)NCC(=O)OC(C)OC(=O)OC(C)(C)C (stereo not given)
a: 2

q: Under Hypoxia-inducible factor 1-alpha (Homo sapiens) (UniProt Q16665): fold change (FC) value of COC(=O)C(=O)NCC(=O)OC(C)OC(=O)C(C)C (stereo not given) ?
a: 7

q: API: value(readout= fold change (FC), system= Hypoxia-inducible factor 1-alpha (Homo sapiens) (UniProt Q16665), query= COC(=O)C(=O)NCC(=O)OC(C)OC(=O)C(C)(C)C (stereo not given) )
a: 6

q: Find fold change (FC) (Hypoxia-inducible factor 1-alpha (Homo sapiens) (UniProt Q16665)) for the entry COC(=O)C(=O)NCC(=O)OC(C)OC(C)=O (stereo not given)
a: 6

q: State its fold change (FC) on Hypoxia-inducible factor 1-alpha (Homo sapiens) (UniProt Q16665): COC(=O)C(=O)NCC(=O)OC(C)OC(=O)c1ccccc1 (stereo not given)
a: 5

q: Give recorded fold change (FC) with Hypoxia-inducible factor 1-alpha (Homo sapiens) (UniProt Q16665) for the following molecule: CCC(=O)OCOC(=O)CNC(=O)C(=O)OC
a: 1

meta.source: ChEMBL document CHEMBL6182928
